- Tested on: L1210 leukemia ip in BDF1 mice, survival T/C
- Test: NCI In Vivo Anticancer Drug Screen. Data for tumor model L1210 Leukemia (intraperitoneal) in B6D2F1 (BDF1) mice
- Experimental parameters: endpoint: mean survival time; dose: 100.0 mg/kg/injection; schedule: Q01DX001 (ip); vehicle: carboxymethylcellulose (CMC); higher = longer survival
Toxic doses and inconclusive results are not listed.
Experimental endpoint: T/C

Query: May I ask what T/C has been recorded for CCCCCC(=O)N(CCCC)CCCC ?
Result: 103 % of control

Query: # iterate: Cc1cc2c(c(O)c1CN1CCOCC1)C1=C(CCCC1)C(C)(C)O2
Result: 107 % of control

Query: # iterate: CCN(CC)c1ccc(/C=C2/C=Cc3ccccc32)cc1
Result: 92 % of control

Query: # iterate: COc1ccc(C(=O)C(C)C(C)=N)c(OCc2ccccc2)c1OC (centres undefined)
Result: 95 % of control

Query: # iterate: O=c1[nH]c2cc(Cl)cc(Cl)c2c2ccc(Cl)cc12
Result: 100 % of control

Query: # iterate: S=C(NP(=S)(NC(=S)N1CC1)NC(=S)N1CC1)N1CC1
Result: 95 % of control

Query: # iterate: CC(NC(=O)c1ccc2ccccc2n1)C(=O)O (centres undefined)
Result: 92 % of control

Query: # iterate: O=C1C(Br)=C(Br)c2ccccc21
Result: 99 % of control

Query: # iterate: Cc1nc(N)c2c(n1)C(Cc1ccccc1)N(C(=O)c1ccccc1)C2 (centres undefined)
Result: 97 % of control

Query: # iterate: COC1(OC)C2(Cl)C(Cl)=C(Cl)C1(Cl)C1C2CS1(=O)=O (centres undefined)
Result: 92 % of control

Query: # iterate: O=C(O)CSc1ccc([N+](=O)[O-])cn1
Result: 101 % of control

Query: # iterate: CCOC(=O)C(Cc1ccc(O)cc1)Nc1nc2ccccc2o1 (centres undefined)
Result: 96 % of control

Query: # iterate: Cc1ccc(C(C)CC(=O)O)cc1 (centres undefined)
Result: 101 % of control

Query: # iterate: O=C1c2cc([N+](=O)[O-])ccc2-c2cc(Cl)c(NC(=O)C(Cl)Cl)cc21
Result: 104 % of control

Query: # iterate: CCOC(=O)NC1CC2CCC1C2 (centres undefined)
Result: 103 % of control

Query: # iterate: CCCCC(Cl)(CCCC)C(C)Sc1ccc([N+](=O)[O-])cc1 (centres undefined)
Result: 103 % of control

Query: # iterate: CCOC(=O)/C(C(=O)c1ccccc1)=C(\OC(=O)c1ccccc1)c1ccccc1
Result: 102 % of control

Query: # iterate: O=[N+]([O-])c1ccc(O)c(CN(Cc2ccccc2)Cc2c(O)ccc3ccccc23)c1
Result: 98 % of control

Query: # iterate: Cc1cc(-n2cnc3c(Cl)ncnc32)ccc1[N+](=O)[O-]
Result: 101 % of control

---

Provide the reported T/C of each item.
- Tested on: L1210 leukemia ip in BDF1 mice, survival T/C
- Test: NCI In Vivo Anticancer Drug Screen. Data for tumor model L1210 Leukemia (intraperitoneal) in B6D2F1 (BDF1) mice
- Experimental parameters: endpoint: mean survival time; dose: 50.0 mg/kg/injection; schedule: Q01DX001 (ip); vehicle: saline; higher = longer survival
Toxic doses and inconclusive results are not listed.

Query: May I ask what T/C has been recorded for CC(=O)OCC1OC(COC(C)=O)(c2ccc(C)cc2)C(OC(C)=O)C1OC(C)=O (centres undefined) ?
Result: 97 % of control

Query: # iterate: COCCCN1CC2CCCC1O2 (centres undefined)
Result: 91 % of control

Query: # iterate: COc1ccc(OC)c2c(=O)cc(C(=O)O)[nH]c12
Result: 98 % of control

Query: # iterate: ICCC(c1ccccc1)(c1ccccc1)c1ccccc1
Result: 108 % of control

---

Provide the reported T/C of each item.
- Tested on: L1210 leukemia ip in BDF1 mice, survival T/C
- Test: NCI In Vivo Anticancer Drug Screen. Data for tumor model L1210 Leukemia (intraperitoneal) in B6D2F1 (BDF1) mice
- Experimental parameters: endpoint: mean survival time; dose: 100.0 mg/kg/injection; schedule: Q01DX009 (ip); vehicle: saline with Tween-80; higher = longer survival
Toxic doses and inconclusive results are not listed.

Query: May I ask what T/C has been recorded for COc1ccc(OC)c(C(C)(O)CC(=O)O)c1 (centres undefined) ?
Result: 100 % of control

Query: # iterate: NC(=O)c1[nH]c(CCCc2ccccc2)nc1N
Result: 90 % of control

Query: # iterate: C/C(Cc1ccccc1)=N/N(C)C
Result: 113 % of control

Query: # iterate: O=C(/C=C/c1ccccc1)c1cccc(Br)c1
Result: 106 % of control

Query: # iterate: CCNC(C)(C)C(SS(=O)(=O)O)c1ccc(Cl)s1 (centres undefined)
Result: 96 % of control

Query: # iterate: O=C(O)CCCCCCCCC(=O)c1ccccc1
Result: 95 % of control

Query: # iterate: COC(=O)C1=C(\N2CCOCC2)CCCCC/C=C\1C(=O)OC
Result: 94 % of control

Query: # iterate: CN(C)c1ccc(N=Nc2ccc(Cl)c(Cl)c2)cc1
Result: 95 % of control

Query: # iterate: Cc1nc2ccc(N(C)C)cc2c2c1Cc1c(C)nc3ccc(N(C)C)cc3c1O2
Result: 95 % of control

Query: # iterate: C1=C\C2CC2CCCC/1 (centres undefined)
Result: 102 % of control

Query: # iterate: CC(=O)Oc1ccc(C2CC(=O)OC2=O)cc1 (centres undefined)
Result: 105 % of control

Query: # iterate: OC12Cc3ccccc3C1=NN(c1ccccc1)C2c1ccccc1 (centres undefined)
Result: 90 % of control

Query: # iterate: Cc1ccc(Nc2nc(N)nc(N)c2Cl)cc1
Result: 91 % of control

Query: # iterate: Cc1ccc(C)c(NC(=O)NCc2ccco2)c1
Result: 97 % of control

Query: # iterate: ClCCCC1(c2ccc(Oc3ccccc3)cc2)OCCO1
Result: 88 % of control

Query: # iterate: COc1cc(/C=C(/C#N)C(N)=O)cc(OC)c1OC
Result: 93 % of control

Query: # iterate: O=C(CCCCCCCCC(=O)N/N=C/c1ccc(Cl)c(Cl)c1)N/N=C/c1ccc(Cl)c(Cl)c1
Result: 93 % of control

Query: # iterate: C=C(C)CSC#N
Result: 101 % of control

Query: # iterate: CCCCCCC1=NC(C)(C)CO1
Result: 102 % of control

Query: # iterate: C=C(Br)CNC(=O)NCC
Result: 105 % of control

Query: # iterate: Cc1c(Cl)cccc1NC(=O)NC(=O)c1ccccc1
Result: 108 % of control

Query: # iterate: Cc1c2ccncc2c(C)c2c1[nH]c1ccccc12
Result: 93 % of control

Query: # iterate: O=C/C=C/c1cccnc1
Result: 101 % of control

Query: # iterate: N#CC(C#N)=Cc1ccc2ccccc2c1Br
Result: 96 % of control

Query: # iterate: NC(=O)/C=C/C(N)=O
Result: 88 % of control

Query: # iterate: CCCCCCC(O)CCCC (centres undefined)
Result: 117 % of control

Query: # iterate: O=C(O)c1ccccc1C(=O)OO
Result: 97 % of control

Query: # iterate: O=C(Sc1ccc([N+](=O)[O-])cc1)C(=O)Sc1ccc([N+](=O)[O-])cc1
Result: 87 % of control

Query: # iterate: Cc1ccc(NC(=O)OCCSC(=O)COc2ccc(Cl)cc2Cl)cc1
Result: 93 % of control

Query: # iterate: CCCCCCCCCCCC(=O)O
Result: 92 % of control

Query: # iterate: NC(N)=N/N=C/C(Cl)Cl
Result: 121 % of control

Query: # iterate: O=c1ccc2c(c1)oc1cccc3c(=O)c4ccccc4c2c13
Result: 101 % of control

Query: # iterate: Brc1ccc([Si](c2ccccc2)(c2ccccc2)c2ccc(Br)cc2)cc1
Result: 101 % of control

Query: # iterate: O=[N+]([O-])c1cc(Cl)ccc1N1CCCCC1
Result: 97 % of control

Query: # iterate: Nc1cccc2c1C(=O)c1cc(Cl)c(Cl)cc1C2=O
Result: 97 % of control

Query: # iterate: Cn1c(=O)c2c(ncn2CCO)n(C)c1=O (tested in a mixture with another compound)
Result: 89 % of control

Query: # iterate: BrC(Br)(c1ccccc1)C1OCCO1
Result: 106 % of control

Query: # iterate: O/N=C\c1ccc(/C=N/O)cc1
Result: 93 % of control

Query: # iterate: Nc1ccnc2snnc12
Result: 90 % of control

Query: # iterate: O=C1c2ccccc2C(=O)N1CNc1cccc(NCN2C(=O)c3ccccc3C2=O)n1
Result: 92 % of control

Query: # iterate: O=C1NCCN1c1cccc([N+](=O)[O-])c1
Result: 98 % of control

Query: # iterate: N#Cc1c(Oc2ccccc2)c(F)c(Oc2ccccc2)c(F)c1Oc1ccccc1
Result: 100 % of control

Query: # iterate: c1ccc(N2N=NC3C4CCC(C4)C32)cc1 (centres undefined)
Result: 108 % of control

Query: # iterate: CCC(=O)c1ccccc1NC(C)=O
Result: 97 % of control

Query: # iterate: NC(CCC(=O)NC(=O)OCc1ccccc1)C(=O)O (centres undefined)
Result: 102 % of control

Query: # iterate: Cc1ccc(S(=O)C(c2ccccc2)C(c2ccccc2)C(C)O)cc1 (centres undefined)
Result: 89 % of control

Query: # iterate: N#CC1C=CCC1 (centres undefined)
Result: 100 % of control

Query: # iterate: CC1C=NNC1=O (centres undefined)
Result: 124 % of control

Query: # iterate: c1ccc2c(c1)Nc1ccncc1S2
Result: 95 % of control

Query: # iterate: CC(C)(CO)NC(=O)CC1CCCCC1
Result: 96 % of control

Query: # iterate: O[C@@H]1CCCC[C@@H]1n1cnc2c(=S)nc[nH]c21
Result: 97 % of control

Query: # iterate: COC(=O)c1ccc(-c2cc(Cl)c3cc(S(=O)(=O)F)ccc3n2)cc1
Result: 94 % of control

Query: # iterate: CCCCCCCCCCCC(=O)NC(=O)N1CCOCC1
Result: 97 % of control

Query: # iterate: O=C(COc1ccc(Cl)c(Cl)c1)Nc1ccc[n+](CC(=O)Nc2ccc(S(=O)(=O)F)cc2)c1
Result: 87 % of control
